test system: HT-29; experiment: NCI tumour cell line growth inhibition, 48 h
Activity calls are given as the source filed them. Cut-off read from the data, not from the text of the source: active = GI50 up to about 1.1 µM and inactive = higher.
Allowed answers: active, inactive

* Cc1c(-c2ccc(O)cc2)n(CCCCCCNCCOC(=O)NCCCc2ccc(N(CCCl)CCCl)cc2)c2ccc(O)cc12 | inactive
* CCCCC[C@H](O)[C@H](C)C=C1SCCCS1 | inactive
* CC1=C(C(=O)OC(C)C)C(c2ccccc2C(F)(F)F)C(C(=O)OC(CO[N+](=O)[O-])CO[N+](=O)[O-])=C(C)N1 (stereo unspecified) | inactive
* C1=C(c2ccccc2)Nc2nnnn2C1c1ccccc1 (stereo unspecified) | inactive
* N#CC(=N)c1ncn(CCO)c1NC(=O)C(F)(F)F | inactive

Task: Outcome logged for CC(=O)NC1C(OC(C)C(=O)NC(C(=O)NC(CCC(=O)NCCCNC2c3ccccc3Nc3cccc([N+](=O)[O-])c32)C(N)=O)C(C)C)C(O)C(CO)OC1(C)OCc1ccccc1 (stereo unspecified) in this assay:
Result: active

Task: Outcome logged for CC(=O)/C(=C\I)c1ccccc1 in this assay:
Result: active

Task: Outcome logged for C[C@@H](O)CCC(=O)c1ccoc1 in this assay:
Result: inactive
